system: M. tuberculosis H37Rv growth inhibition, 7H9 media; assay: M. tuberculosis growth inhibition, HTS (AID 449762); details: measured here: IC90 growth inhibition;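 note: bacterial growth assessed after seven days of incubation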
Inconclusive results are not listed.
1 if IC90 is below 40 µM. -1 if not; exact matches included in -1.

molecule=Nc1nonc1C(=O)NCCNCc1c(OCc2ccccc2F)ccc2ccccc12 label_value=-1
molecule="CCCCCCOC(=O)C(C#N)c1nc2ccccc2nc1N1CCN(CC)CC1 (stereo unspecified)" label_value=1
molecule=CNc1nc(-c2ccccn2)nnc1-c1ccccc1 label_value=1
molecule=O=C1CCC(=O)N1CNc1ccc(Oc2ccccc2)cc1 label_value=-1
molecule=Cc1oc(C(=O)Nc2ccc(O)cc2)cc1COc1ccccc1 label_value=-1
molecule=Cc1cc(C)c2c(CN3CCN(Cc4ccccc4)CC3)cc(=O)oc2c1C label_value=-1
molecule=COc1cc(NC(=O)c2cnc(N)s2)cc(C(=O)Nc2cccc(C(F)(F)F)c2)c1 label_value=-1
molecule=CCn1c(SCC(=O)OC2CCCCC2)nc2ccccc2c1=O label_value=1
molecule=Cn1cnnc1SCc1ccc(-c2ccc(Br)cc2)o1 label_value=-1
molecule="OC(CN1CCN(c2ccccn2)CC1)Cn1c2ccccc2c2ccccc21 (stereo unspecified)" label_value=-1
molecule=CN(C)C1(CNC(=O)Nc2ccc(Cl)c(Cl)c2)CCCCC1 label_value=1
